Origin of values: ChEMBL document CHEMBL4152256

- METHOD SUMMARY: Cytotoxicity against human HepG2A16 cells
- Type: cell-based
- CONDITION SUMMARY: HepG2A16 cells
READOUT: CC50 (µM)
Write down the numeric answer in µM and omit the unit.

## Input Value lookup for CC50; key = OC(CCN1CCN(c2ccccc2C(F)(F)F)CC1)c1ccc(F)c2ccccc12 (single isomer, unassigned; (+))
## Output 36.1

====

- METHOD SUMMARY: Genotoxicity in Salmonella typhimurium TA1535 harboring pSK1002 assessed as survival at 0.5 mg/ml in presence of Sprague-Dawley rat liver S9 fraction after by SOS/umu assay relative to control
- Type: toxicity, organism-based
- CONDITION SUMMARY: salmonella enterica subsp. enterica serovar typhimurium, read-out: Survival
READOUT: viability at 0.5 mg/ml (%)
Write down the numeric answer in % and omit the unit.

* OC(CCN1CC=C(c2ccc(F)cc2)CC1)c1ccc2c(c1)OCO2 (configuration not stated) | 87.1
* OC(CCN1CCN(c2ccccc2C(F)(F)F)CC1)c1ccc(F)c2ccccc12 (stereo in doubt; 55) | 168
* N#Cc1ccc(C(O)CCN2CC=C(c3ccc(F)cc3)CC2)cc1 (configuration not stated) | 99.1
* COc1ccccc1C1=CCN(CCC(O)c2ccc(F)cc2)CC1 (configuration not stated) | 82.1
* Nc1ccc(N2CCC(NCCC(O)c3ccc(F)c4ccccc34)CC2)c(C(F)(F)F)c1 (configuration not stated) | 118

## Input Value lookup for viability at 0.5 mg/ml; key = OC(CCN1CCN(c2ccc(F)cc2)CC1)c1ccc(F)c2ccccc12 (configuration not stated)
## Output 112

## Input Value lookup for viability at 0.5 mg/ml; key = OC(CCN1CCN(c2ccccc2C(F)(F)F)CC1)c1ccc(F)cc1 (configuration not stated)
## Output 37.2
